measurement.description: soluble on expression in E. coli; label from the status in PepcDB or PDB records
readout.name: soluble on expression in E. coli

Known results for sequences:
LSLQSEIDSLCAVSHELLHLGLDGEPIYSDRFRQLNTDVYHRCEHLFGSHGRTLEEEASLCIALLTGYNATIYNHGDKEDKIQSVLNRSWDLLDTLPVSLLKCRLLVACYAEVFD ... not soluble
MGELIEGVWHPNWYDTASNGGRFVRSRARFRNWITADGSPGPSGEGGFPAEAGRYHLYVAHACPWAHRTMIFRALKDLAPLIDVSVVHPEMLEDGWTFDRSFPGATGDRLYGLAFLREIYLKADPGISARVTVPVLWDRKRETIVSNESAEIIRMFNAAFDHLTGNRVDFLPEGDLAEIDRLNDRIYGTVNNGVYRAGFATTQEAYDEAAAPLFETLDWLEERLATRRYLVGDRLTEADWRLFTTLVRFDKVYHTHFKCNRRQIVQYPNLWGWLRELWQVPGVAETVHFDHIVRHYYFSHDTINPHRIVPLTPDPDFAAPHGRDQLFQASRLR ... not soluble
HPGEVIVLIHGLMRTYVSMKPLKAYLEAQGYQVYLYKYPSARYNIQEHGVYLNQFITTILENNPAIKIHFVTHSLGGIIVREALSKLSQKQLKHVGYLIMLAPPNQGSKLAKFSIKLFPMISYFIKPLAELSSEQTSYVHRVPVPDIKMGIIAGRFDAKVPPDYARLQGQTEQVIINNTHTFIMYDSKVKKLVLSFLEKGKFE ... not soluble
MTMNHDDRLRNRYEACRSGMQELDMLRAKHTLLIQNLRSRLPIIPGSLDDVQTREKKTRDVFLDRFSLQSVDSGISSQNTISSTRSSTPEDFKTSNRHSNIYENSSTTMNYSTFRKMSLESTHSSVSHSMQNDVEKTSFAPPVITSRSCHRGAWKTSPQRIRPKSMFDSTTSNTEYLFSKPPRHPIDLTKERRSAFTVLNQSSKRHSSIEPSLPSTLSQLSLNDEAKTPQKAEVIRWNKQKADAMFRANVVYVSSTEQPTKPAPLRFSPARSPPVRRALPIELKPTQHFAQPCKIRSPKLNTKTVFAAKPIAVRPSISPKVAQRSTWLQSQPL ... not soluble

Lab note: next sequence to report on.
Which soluble on expression in E. coli value belongs to MGSDKIHHHHHHMSNEQLADLTQPQRDRLAFVELRVRFIGEIRRQDLVTRFGIQSAAASRDLALYKELAPGNIDYDSKGKSYVLGPDFRPVFDFPPERVLSWLTQGFGDGEPMRLKAWVASESPSRLTHPDLDVLASVTRAIHQECPLGIEYHSISSGRTEREIVPFALIDNGLRWHVRAFDRKSQEFRDFVITRIKRPVLIRDAEVQSHERSDQDIQWTRIVELEMVPHPDQPRPEITEMDYGMVRGSLRMKLRAATAGYILRQWSVDCSPDHSLRGYEFRLWLKDHLALYGVKNAVLAPGYRSPDQNKGEQ ?
not soluble

----------
measurement.description: soluble on expression in E. coli; label from the status in PepcDB or PDB records
readout.name: soluble on expression in E. coli

Known results for sequences:
MIDDLLNFFNSFNVVKNYKLINQLKNEVDTLKSRLDIPRELLDGFYADRNSREYREVYEKDAPLVTVCIGTYNRGKLLVERSVRSVLEQSYGNIELIVVGDCCTDDTPRLVQGITDPRFRFINLPERGNYPENPLHRWCVAGTVPFNYALSQARGDFITHLDDDDEFVPDRIEKLVKFIQREKADLVWHPFWYERSNGRWAMRKAQEFSGGKVTTSSIFYHRWFTAVPWDIEAYRYQEPGDWNRLRKIKYLGARVARYPEPLLRHYCERNQESLSSRTIQTRNTKLEHHHHHH ... not soluble
MAELKDQLSLLGRKTEYKQDYAPEVLEAFDNKHPENDYWVRFNCPEFTSLCPITGQPDFAEIRISYIPDIKMVESKSLKLYLFSFRNHGAFHEDCVNIIMKDLIKLMNPKYIEVTGIFTPRGGISIYPYANYGRPGTKFEQMAEHRLMNRE ... not soluble
MSLQPNDITFFQRFQNDILAGRKTITIRDASESHFKAGDVLRVGRFEDDGYFCTIEVTGTSTVTLDTLNEKHAQQENMSLDELKRVIAEIYPNQTQFYVIDFKCLEGHHHHHH ... soluble
GPLGSPEFGYWITCCPTCDVDINTWVPFYSTELNKPAMIYCSHGDGHWVHAQCMDLEERTLIHLSEGSNKYYCNEHVQIARA ... soluble
MLKSKKRLLNPDYLFVTQDESSFYLDSNRSKCWAIKGSKPIKFISGSKTKINIGGFYTENRDFYWYDLGIKKNTDSFLKSLIKLKKDIGRKIFLLLDRATWHKSKKAREFFQNNKYWLQILLFPPATPDRNPTEYCWKTTREELTSIKSFKNIKVLKEELDEFWEKHVFTHKMSHYLKWLEHHHHHH ... not soluble
MRCLALDIGGTKIAAAIVKNGEIEQRQQIHTPRENVVEGMHQALGKLLADYEGQFDYVAVASTGIINNGILSALNPKNLGGLAEFPLKASIAKHTDKPIGLLNDAQAATYAEYQLQNSEQVSNFVFITVSTGVGGGIVLNQILQTGSRGIAGHIGHTLADPNGAICGCGRRGCVEAIASGRAIEAVSSQWEEPCDPKEVFERFRKNDEKATALVERSAKAIANLIADLVISLDIQKIAIGGSVGLAEGYLSLVEKYLQDFPSIYCCEIETAKFGQDAGLIGAAYWVKDVLLDKPEGTIYGLEHHHHHH ... soluble
GSHMASMTGGQQMGRGSNNGDICIKDSINTLWTGINPPPNCQIVENTNTNDGKLTLVLVKNGGLVNGYVSLVGVSDTVNQMFTQKTANIQLRLYFDSSGNLLTEESDLKIPLKNKSSTATSETVASSKAFMPSTTAYPFNTTTRDSENYIHGICYYMTSYDRSLFPLNISIMLNSRMISSNVAYAIQFEWNLNASESPESNIATLTTSPFFFSYITEDDN ... soluble

Which soluble on expression in E. coli value belongs to MAIERIQLHTHGDDRGLLISLEQQRNVPFEIRRVYYIFGTRQGVHRGQHAHRQLNQLAVALHGSVTLLLDEGQGQGPEEVVLDDPSQGVLLGRMVWRDLHQFSEDCVLMVLADQYYDPGDYILDYDEFLTEARGVSRLEALEHHHHHH ?
soluble

----------
measurement.description: soluble on expression in E. coli; label from the status in PepcDB or PDB records
readout.name: soluble on expression in E. coli

Known results for sequences:
VVVTDMGILAKRSVDGSLDIFVQSLSQGLPIANAKVDVVGRNGLSVAEGFTDLGGHVHLPKLGQLRREKRPLFYRVEKAGDVSFLPIGDWRRELDMSRFDIGGSNESEDPNTLSAYLFTDRGLYRPGETAHVASLVRSQSWGASLDGLPVKMVVTDPRGIDVLDRTFNLDSSGFNSLDFSSTEAAVAGEYTASLSLIRDKHNLTRLGEESFKVRDFEPDRIKVRVTLGATESGTSIGWLKPEEVSAKVQAEQLFGGPAGDRRVTGEMVLSPTDISFKELPGYYFGVQGE ... not soluble
IDQLNRNQLDLGMCYVDQVNTAYFDVIELDSTKLGVLFDERHFDFAESEVLWESLNNIPLGLLSKGMHYRHSIDLSFVSKGLVPQTVIESNSTFHLIQAVTSGLCCAIMPLNCGLEELNDTLRIIPIEEAAVHAPLGLLKRKQEPFSALTDQCFAEAKNIFNR ... not soluble
MGSDKIHHHHHHMKLIINADDFGFTRAINYGIIDAHNLGVLTSTTLMVTMPAFEHAVDLSKKTPTLGIGLHLNLTLGKPLTNGATLVNEDGELIKPKFTTPEYPYNEEEVYQEFKAQYHRFTEFMKKKPSHLDSHLFSTDIYPVVTSAAKRLAEEIGIPLRNHDTKGFEHVEFMWEKPLEIPYGEYDNLDYIYDNAASILCYDYVEIMTHPGYLDTFILENSTFSTPRANELESLISPRMRQFLNENNVELISYHDIPKK ... not soluble
MEIKQTIAKNLNRVKNELGLKNQDLAEVMGVTRQTIAKYLKGEQIPDSAKLFLLSRRLNIPMKDLIVSSDDQREPMSSFMFRADNPKENFRLIDQNQVNRIMDDYYELLASFGEASVAYLPPTYKLKLVDHELTEEHKTIIRQAAEQTRKMFGLDHVIPSDIYAVLEHHGIHVIALKTIDKKIDGLSAYSEEKGAFIFLNDHDEIPEERKRFSVIHELGHLIFHREEYRSDLSSLTYSSARREINEKVATLFASYFLIPREQLREYAYYFKRYVTIETIMELKRQFFVSAEAFMRALLDEQYISGRTYGFLRKTLREQGYKEQEPAPIDYIPKNRKLTYFVKQAYFEGSITINKVCEILGCDLRTAREMIKGWYKEHGCSENTGAL ... not soluble

Lab note: next sequence to report on.
Which soluble on expression in E. coli value belongs to MGSDKIHHHHHHMQDKVIPSLSAAIAKEVERRTQGVDWCETEIAGLDFYRQSAPTSCSVCVVEPSIALVVQGAKAMTLGEQTFRYDPSRFLITSLDLPAKMQVLEASEEAPYLGVVIKLDLAVMSDLMLQTPLTMQKETASDQGMILGATTPKLLGAISRLVNLLDEPESIAVLAPLIKREIYWRVLMSEQGARLRQIVSAGSHGLRIARTIEWLKVHYDQHLSVDSLADMARMSKSTFHHHFRRLTSMSPLQYQKRLRLLEARRLMLGEDIDASAAAYRVGYESPSQFSREYSRLFGASPKKDVATQWQ ?
not soluble
